Measurement protocol: Ex vivo biodistribution of 177Lu-labeled ligands in PC-3 tumor-bearing mice
Experimental context: mouse, bone, intravenous, 4 h pi, n = 5; read-out: Bone uptake
Observable: tissue uptake at 4 h (%ID/g)
Answer format: numeric, %ID/g implied, no suffix.

QUERY: Data request, read-out tissue uptake at 4 h, for CC(C)C[C@H](NC(=O)[C@H](Cc1cnc[nH]1)N(C)C(=O)CNC(=O)[C@@H](NC(=O)[C@H](C)NC(=O)[C@H](Cc1c[nH]c2ccccc12)NC(=O)[C@H](CCC(N)=O)NC(=O)[C@@H](Cc1ccccc1)NC(=O)CN1CCC(NC(=O)CN2CCN(CC(=O)O)CCN(CC(=O)O)CCN(CC(=O)O)CC2)CC1)C(C)(C)C)C(=O)N1CC(F)(F)C[C@H]1C(N)=O [[^177Lu]Lu-LW02060, metal not drawn]
RESULT: 0.1

QUERY: Data request, read-out tissue uptake at 4 h, for CC(C)C[C@@H](CN1CC(F)(F)C[C@H]1C(N)=O)NC(=O)[C@H](Cc1c[nH]cn1)NC(=O)CN(C)C(=O)[C@@H](NC(=O)[C@H](C)NC(=O)[C@H](Cc1c[nH]c2ccccc12)NC(=O)[C@H](CCC(N)=O)NC(=O)[C@@H](Cc1ccccc1)NC(=O)CN1CCC(NC(=O)CN2CCN(CC(=O)O)CCN(CC(=O)O)CCN(CC(=O)O)CC2)CC1)C(C)C [[^177Lu]Lu-LW02080, metal not drawn]
RESULT: 0.01

----------
So I've got a bunch of molecules here, and I need their tissue uptake at 72 h values.
Measurement protocol: Ex vivo biodistribution of 177Lu-labeled ligands in PC-3 tumor-bearing mice
Experimental context: mouse, small intestine, intravenous, 72 h pi, n = 5; read-out: Small intestine uptake
Answer format: numeric, %ID/g implied, no suffix.

QUERY: Data request, read-out tissue uptake at 72 h, for CC(C)C[C@H](NC(=O)[C@H](Cc1cnc[nH]1)N(C)C(=O)CNC(=O)[C@@H](NC(=O)[C@H](C)NC(=O)[C@H](Cc1c[nH]c2ccccc12)NC(=O)[C@H](CCC(N)=O)NC(=O)[C@@H](Cc1ccccc1)NC(=O)CN1CCC(NC(=O)CN2CCN(CC(=O)O)CCN(CC(=O)O)CCN(CC(=O)O)CC2)CC1)C(C)(C)C)C(=O)N1CC(F)(F)C[C@H]1C(N)=O [[^177Lu]Lu-LW02060, metal not drawn]
RESULT: 0.04

QUERY: Data request, read-out tissue uptake at 72 h, for CC(C)C[C@@H](CN1CC(F)(F)C[C@H]1C(N)=O)NC(=O)[C@H](Cc1c[nH]cn1)NC(=O)CN(C)C(=O)[C@@H](NC(=O)[C@H](C)NC(=O)[C@H](Cc1c[nH]c2ccccc12)NC(=O)[C@H](CCC(N)=O)NC(=O)[C@@H](Cc1ccccc1)NC(=O)CN1CCC(NC(=O)CN2CCN(CC(=O)O)CCN(CC(=O)O)CCN(CC(=O)O)CC2)CC1)C(C)C [[^177Lu]Lu-LW02080, metal not drawn]
RESULT: 0.01

----------
Measurement protocol: Ex vivo biodistribution of 177Lu-labeled ligands in PC-3 tumor-bearing mice
Experimental context: mouse, small intestine, intravenous, 24 h pi, n = 5; read-out: Small intestine uptake
So I've got a bunch of molecules here, and I need their tissue uptake at 24 h values.

QUERY: Data request, read-out tissue uptake at 24 h, for CC(C)C[C@@H](CN1CC(F)(F)C[C@H]1C(N)=O)NC(=O)[C@H](Cc1c[nH]cn1)NC(=O)CN(C)C(=O)[C@@H](NC(=O)[C@H](C)NC(=O)[C@H](Cc1c[nH]c2ccccc12)NC(=O)[C@H](CCC(N)=O)NC(=O)[C@@H](Cc1ccccc1)NC(=O)CN1CCC(NC(=O)CN2CCN(CC(=O)O)CCN(CC(=O)O)CCN(CC(=O)O)CC2)CC1)C(C)C [[^177Lu]Lu-LW02080, metal not drawn]
RESULT: 0.03 %ID/g

QUERY: Data request, read-out tissue uptake at 24 h, for CC(C)C[C@H](NC(=O)[C@H](Cc1cnc[nH]1)N(C)C(=O)CNC(=O)[C@@H](NC(=O)[C@H](C)NC(=O)[C@H](Cc1c[nH]c2ccccc12)NC(=O)[C@H](CCC(N)=O)NC(=O)[C@@H](Cc1ccccc1)NC(=O)CN1CCC(NC(=O)CN2CCN(CC(=O)O)CCN(CC(=O)O)CCN(CC(=O)O)CC2)CC1)C(C)(C)C)C(=O)N1CC(F)(F)C[C@H]1C(N)=O [[^177Lu]Lu-LW02060, metal not drawn]
RESULT: 0.13 %ID/g

----------
So I've got a bunch of compounds here, and I need their tissue uptake at 1 h values.
Measurement protocol: Ex vivo biodistribution of 68Ga-labeled tracers in PC-3 tumor-bearing mice
Experimental context: mouse, adrenal glands, intravenous, 100 ug; 1 h pi, blocked (100 µg blocking agent co-injected); read-out: Adrenal glands uptake
The number alone won't do; follow it with the unit.

QUERY: Data request, read-out tissue uptake at 1 h, for CC(C)C[C@H](NC(=O)[C@H](Cc1cnc[nH]1)N(C)C(=O)CNC(=O)[C@@H](NC(=O)[C@H](C)NC(=O)[C@H](Cc1c[nH]c2ccccc12)NC(=O)[C@H](CCC(N)=O)NC(=O)[C@@H](Cc1ccccc1)NC(=O)CN1CCC(NC(=O)CN2CCN(CC(=O)O)CCN(CC(=O)O)CCN(CC(=O)O)CC2)CC1)C(C)(C)C)C(=O)N1CC(F)(F)C[C@H]1C(N)=O [[^68Ga]Ga-LW02060, metal not drawn]
RESULT: 0.67 %ID/g

QUERY: Data request, read-out tissue uptake at 1 h, for CC(C)C[C@@H](CN1CC(F)(F)C[C@H]1C(N)=O)NC(=O)[C@H](Cc1c[nH]cn1)NC(=O)CN(C)C(=O)[C@@H](NC(=O)[C@H](C)NC(=O)[C@H](Cc1c[nH]c2ccccc12)NC(=O)[C@H](CCC(N)=O)NC(=O)[C@@H](Cc1ccccc1)NC(=O)CN1CCC(NC(=O)CN2CCN(CC(=O)O)CCN(CC(=O)O)CCN(CC(=O)O)CC2)CC1)C(C)C [[^68Ga]Ga-LW02080, metal not drawn]
RESULT: 0.69 %ID/g

----------
Measurement protocol: Ex vivo biodistribution of 177Lu-labeled ligands in PC-3 tumor-bearing mice
Experimental context: mouse, PC-3 tumor, intravenous, 4 h pi, n = 5; read-out: PC-3 tumor uptake
Observable: tissue uptake at 4 h (%ID/g)
Answer format: numeric, %ID/g implied, no suffix.

QUERY: Data request, read-out tissue uptake at 4 h, for CC(C)C[C@H](NC(=O)[C@H](Cc1cnc[nH]1)N(C)C(=O)CNC(=O)[C@@H](NC(=O)[C@H](C)NC(=O)[C@H](Cc1c[nH]c2ccccc12)NC(=O)[C@H](CCC(N)=O)NC(=O)[C@@H](Cc1ccccc1)NC(=O)CN1CCC(NC(=O)CN2CCN(CC(=O)O)CCN(CC(=O)O)CCN(CC(=O)O)CC2)CC1)C(C)(C)C)C(=O)N1CC(F)(F)C[C@H]1C(N)=O [[^177Lu]Lu-LW02060, metal not drawn]
RESULT: 8.38

QUERY: Data request, read-out tissue uptake at 4 h, for CC(C)C[C@@H](CN1CC(F)(F)C[C@H]1C(N)=O)NC(=O)[C@H](Cc1c[nH]cn1)NC(=O)CN(C)C(=O)[C@@H](NC(=O)[C@H](C)NC(=O)[C@H](Cc1c[nH]c2ccccc12)NC(=O)[C@H](CCC(N)=O)NC(=O)[C@@H](Cc1ccccc1)NC(=O)CN1CCC(NC(=O)CN2CCN(CC(=O)O)CCN(CC(=O)O)CCN(CC(=O)O)CC2)CC1)C(C)C [[^177Lu]Lu-LW02080, metal not drawn]
RESULT: 2.96

----------
Measurement protocol: Ex vivo biodistribution of 177Lu-labeled ligands in PC-3 tumor-bearing mice
Experimental context: mouse, bone, intravenous, 100 ug, 1 h pi, blocked (100 µg GRPR antagonist co-injected); read-out: Bone uptake
Observable: tissue uptake at 1 h (%ID/g)
Answer format: numeric, %ID/g implied, no suffix.

QUERY: Data request, read-out tissue uptake at 1 h, for CC(C)C[C@H](NC(=O)[C@H](Cc1cnc[nH]1)N(C)C(=O)CNC(=O)[C@@H](NC(=O)[C@H](C)NC(=O)[C@H](Cc1c[nH]c2ccccc12)NC(=O)[C@H](CCC(N)=O)NC(=O)[C@@H](Cc1ccccc1)NC(=O)CN1CCC(NC(=O)CN2CCN(CC(=O)O)CCN(CC(=O)O)CCN(CC(=O)O)CC2)CC1)C(C)(C)C)C(=O)N1CC(F)(F)C[C@H]1C(N)=O [[^177Lu]Lu-LW02060, metal not drawn]
RESULT: 0.12

QUERY: Data request, read-out tissue uptake at 1 h, for CC(C)C[C@@H](CN1CC(F)(F)C[C@H]1C(N)=O)NC(=O)[C@H](Cc1c[nH]cn1)NC(=O)CN(C)C(=O)[C@@H](NC(=O)[C@H](C)NC(=O)[C@H](Cc1c[nH]c2ccccc12)NC(=O)[C@H](CCC(N)=O)NC(=O)[C@@H](Cc1ccccc1)NC(=O)CN1CCC(NC(=O)CN2CCN(CC(=O)O)CCN(CC(=O)O)CCN(CC(=O)O)CC2)CC1)C(C)C [[^177Lu]Lu-LW02080, metal not drawn]
RESULT: 0.07
